src = paper PMC5814585

experimental_system: actin.PsoS1
assay_info: ADP dissociation constant in the presence of phosphate (KADP+Pi) and calculated KPi app, psoas
Assay type: binding, rabbit
study_conditions: Psoas S1, pH 7.0, 10°C, 30 mM Pi; read-out: KADP+Pi
result_type: Kd (µM)
Dear colleague, please return just the value in µM, with no unit written.

Param item = "Nc1ncnc2c1ncn2[C@@H]1O[C@H](COP(=O)(O)OP(=O)(O)O)[C@@H](O)[C@H]1O" ; retrieve measured Kd. 770

* * *

experimental_system: actin.PsoS1
assay_info: ADP dissociation constant (KADP) by competitive inhibition of ATP-induced dissociation, psoas
Assay type: binding, rabbit
study_conditions: psoas actin.S1, between 10 and 30°C, pH 7.0; read-out: ADP affinity (KADP)
result_type: Kd

Form field - read-out: Kd; system: actin.PsoS1; submitted item: "Nc1ncnc2c1ncn2[C@@H]1O[C@H](COP(=O)(O)OP(=O)(O)O)[C@@H](O)[C@H]1O" ~200 µM
